test system: Staphylococcus aureus; experiment: Antibacterial activity against Staphylococcus aureus ATCC 25923 assessed as effect on planktonic growth at 0.68 ug/ml after 20 hrs relative to control; type: functional
parameter: Activity (%)

In [3]: df
Out[3]:
                                    compound        subject_of_test  parameter  units_of_measure  reading
 0  COc1ccc(Cl)cc1C1=C(Br)C(=O)N(CC(C)C)/C1=C/c1ccccc1Br  Staphylococcus aureus   Activity                 %        3
 1  COc1ccc(C)cc1C1=C(Br)C(=O)N(CC(C)C)/C1=C/c1cccc(Cl)c1  Staphylococcus aureus   Activity                 %      5.8
 2  COc1ccc(C)cc1C1=C(Br)C(=O)O/C1=C\c1cccc(Cl)c1  Staphylococcus aureus   Activity                 %     52.2
 3  COc1ccc(C)cc1C1=C(Br)C(=O)N(CC(C)C)C1(O)Cc1cccc(Cl)c1 (configuration not stated)  Staphylococcus aureus   Activity                 %     10.8
 4  COc1ccc(C)cc1C1=C(Br)C(=O)O/C1=C\c1ccccc1Cl  Staphylococcus aureus   Activity                 %     10.9
 5  COc1ccc(Br)cc1C1=C(Br)C(=O)N(CC(C)C)/C1=C/c1cccc(Cl)c1  Staphylococcus aureus   Activity                 %    -19.6
 6  COc1ccc(C)cc1C1=C(Br)C(=O)N(CC(C)C)C1(O)Cc1ccccc1Cl (configuration not stated)  Staphylococcus aureus   Activity                 %     -2.5
 7  COc1ccc(Br)cc1C1=C(Br)C(=O)N(CC(C)C)/C1=C/c1ccc(Br)cc1  Staphylococcus aureus   Activity                 %     18.5
 8  COc1ccc(Cl)cc1C1=C(Br)C(=O)N(CC(C)C)/C1=C\c1ccccc1Br  Staphylococcus aureus   Activity                 %     12.2
 9  COc1ccc(C)cc1C1=C(Br)C(=O)N(CC(C)C)/C1=C\c1cccc(Cl)c1  Staphylococcus aureus   Activity                 %      9.2
10  COc1ccccc1C1=C(Br)C(=O)N(CC(C)C)/C1=C/c1ccc(C(F)(F)F)cc1  Staphylococcus aureus   Activity                 %     -5.2
11  COc1ccc(Br)cc1C1=C(Br)C(=O)O/C1=C\c1cccc(Cl)c1  Staphylococcus aureus   Activity                 %       20
12  COc1ccc(Br)cc1C1=C(Br)C(=O)N(CC(C)C)/C1=C\c1ccc(Br)cc1  Staphylococcus aureus   Activity                 %     -0.5
13  COc1ccc(C)cc1C1=C(Br)C(=O)N(CC(C)C)/C1=C\c1ccccc1Cl  Staphylococcus aureus   Activity                 %     -4.9
14  COc1ccc(C)cc1C1=C(Br)C(=O)N(CC(C)C)/C1=C/c1ccccc1Cl  Staphylococcus aureus   Activity                 %     -3.6
15  COc1ccccc1C1=C(Br)C(=O)N(CC(C)C)C1(O)Cc1ccc(C(F)(F)F)cc1 (configuration not stated)  Staphylococcus aureus   Activity                 %     -5.6
16  COc1ccc(Br)cc1C1=C(Br)C(=O)N(CC(C)C)C1(O)Cc1ccc(Br)cc1 (configuration not stated)  Staphylococcus aureus   Activity                 %    -10.8
17  COc1cccc(/C=C2\C(c3cc(Cl)ccc3OC)=C(Br)C(=O)N2CC(C)C)c1  Staphylococcus aureus   Activity                 %     39.1
18  COc1ccc(Cl)cc1C1=C(Br)C(=O)O/C1=C\c1ccccc1Br  Staphylococcus aureus   Activity                 %    -10.6
19  COc1ccc(Cl)cc1C1=C(Br)C(=O)N(CC(C)C)C1(O)Cc1ccccc1Br (configuration not stated)  Staphylococcus aureus   Activity                 %      3.7
20  COc1ccc(Br)cc1C1=C(Br)C(=O)O/C1=C\c1ccc(Br)cc1  Staphylococcus aureus   Activity                 %      0.8
21  COc1cccc(CC2(O)C(c3cc(Cl)ccc3OC)=C(Br)C(=O)N2CC(C)C)c1 (configuration not stated)  Staphylococcus aureus   Activity                 %       -5

====

tested on: Staphylococcus epidermidis; test: Antibacterial activity against Staphylococcus epidermidis ATCC 35547 assessed as effect on planktonic growth at 0.17 ug/ml after 20 hrs relative to control; assay type: functional
Listed compounds paired with reported Activity
parameter: Activity (%)

>>> df
                                    compound  parameter  units_of_measure  reading
 0  COc1ccc(Br)cc1C1=C(Br)C(=O)N(CC(C)C)/C1=C/c1cccc(Cl)c1   Activity                 %      2.1
 1  COc1ccc(Br)cc1C1=C(Br)C(=O)O/C1=C\c1cccc(Cl)c1   Activity                 %     -1.7
 2  COc1cccc(/C=C2\OC(=O)C(Br)=C2c2cc(Cl)ccc2OC)c1   Activity                 %      3.7
 3  COc1ccc(Br)cc1C1=C(Br)C(=O)N(CC(C)C)C1(O)Cc1cccc(Cl)c1 (stereo not drawn)   Activity                 %     17.5
 4  COc1ccc(C)cc1C1=C(Br)C(=O)N(CC(C)C)/C1=C/c1cccc(Cl)c1   Activity                 %     13.9
 5  COc1ccc(C)cc1C1=C(Br)C(=O)N(CC(C)C)/C1=C\c1ccccc1Cl   Activity                 %        4
 6  COc1cccc(CC2(O)C(c3cc(Cl)ccc3OC)=C(Br)C(=O)N2CC(C)C)c1 (stereo not drawn)   Activity                 %       10
 7  COc1ccc(Br)cc1C1=C(Br)C(=O)N(CC(C)C)/C1=C\c1ccc(Br)cc1   Activity                 %      3.3
 8  COc1ccc(C)cc1C1=C(Br)C(=O)N(CC(C)C)/C1=C/c1ccccc1Cl   Activity                 %     -2.9
 9  COc1ccc(Br)cc1C1=C(Br)C(=O)N(CC(C)C)/C1=C/c1ccc(Br)cc1   Activity                 %     -3.3
10  COc1ccccc1C1=C(Br)C(=O)N(CC(C)C)/C1=C/c1ccc(C(F)(F)F)cc1   Activity                 %    -16.7
11  COc1ccc(C)cc1C1=C(Br)C(=O)N(CC(C)C)C1(O)Cc1ccccc1Cl (stereo not drawn)   Activity                 %        6
12  COc1ccc(Br)cc1C1=C(Br)C(=O)N(CC(C)C)C1(O)Cc1ccc(Br)cc1 (stereo not drawn)   Activity                 %      2.1

====

// values below are reported Activity
tested on: Streptococcus mutans; test: Antibacterial activity against Streptococcus mutans ATCC 25175 assessed as effect on planktonic growth at 0.68 ug/ml after 20 hrs relative to control; type: functional
parameter: Activity (%)

>>> df
                                   compound  reading
0  COc1cccc(/C=C2\OC(=O)C(Br)=C2c2cc(Cl)ccc2OC)c1     23.9
1  COc1ccc(Br)cc1C1=C(Br)C(=O)N(CC(C)C)/C1=C/c1cccc(Cl)c1     -6.5
2  COc1ccc(C)cc1C1=C(Br)C(=O)N(CC(C)C)/C1=C/c1ccccc1Cl        9
3  COc1ccc(C)cc1C1=C(Br)C(=O)O/C1=C\c1cccc(Cl)c1     -5.8
4  COc1ccccc1C1=C(Br)C(=O)N(CC(C)C)C1(O)Cc1ccc(C(F)(F)F)cc1 (stereo not given)     10.9
